Test System: Mcl-1/Bim interaction, recombinant human Mcl-1 (171-327) (Homo sapiens, UniProt Q07820)
Construct: made in house
Sequence (Q07820 171-327): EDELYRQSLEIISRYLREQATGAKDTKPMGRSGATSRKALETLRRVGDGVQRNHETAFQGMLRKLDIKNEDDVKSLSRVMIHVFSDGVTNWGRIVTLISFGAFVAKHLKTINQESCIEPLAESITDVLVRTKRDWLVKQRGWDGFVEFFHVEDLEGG
Assay Protocol: Cell free Mcl-1: Bim Affinity Assay (Mcl-1 HTRF)
Format: binding
Test Context: TR-FRET, 0.1 nM Mcl-1 (171-327), 0.05 nM biotin-Bim (51-76)
pIC50: −log10 of the molar value.
In this section we review reported pIC50 values for a set of molecules.
Endpoint Name: pIC50

Molecule	Test System	Test Value
O=C1NS(=O)(=O)C[C@H](CO)C/C=C/[C@@H](O)[C@@H]2CC[C@H]2CN2C[C@@]3(CCCc4cc(Cl)ccc43)COc3ccc1cc32 (single isomer, unassigned) [Example 1090]	Mcl-1/Bim interaction, recombinant human Mcl-1 (171-327) (Homo sapiens, UniProt Q07820)	8.56
CO[C@H]1/C=C/C[C@@H]2CN(C(C)=O)C[C@H]2S(=O)(=O)NC(=O)c2ccc3c(c2)N(C[C@@H]2CC[C@H]21)C[C@@]1(CCCc2cc(Cl)ccc21)CO3 (single isomer, unassigned) [Example 340]	Mcl-1/Bim interaction, recombinant human Mcl-1 (171-327) (Homo sapiens, UniProt Q07820)	9.72
CC[C@@H]1CC/C=C/[C@@H](NC(C)=O)[C@@H]2CC[C@H]2CN2C[C@@]3(CCCc4cc(Cl)ccc43)COc3ccc(cc32)C(=O)NS1(=O)=O (single isomer, unassigned) [Example 1078]	Mcl-1/Bim interaction, recombinant human Mcl-1 (171-327) (Homo sapiens, UniProt Q07820)	9.25
COC1C=CCCC(C(=O)N(C)C)S(=O)(=O)NC(=O)c2ccc3c(c2)N(CC2CCC21)CC1(CCCc2cc(Cl)ccc21)CO3 (single isomer, unassigned) [Example 453]	Mcl-1/Bim interaction, recombinant human Mcl-1 (171-327) (Homo sapiens, UniProt Q07820)	8.17
O=C1NS(=O)(=O)[C@H]2CCC[C@H](/C=C/[C@H](O)[C@@H]3CC[C@H]3CN3C[C@@]4(CCCc5cc(Cl)ccc54)COc4ccc1cc43)C2 (single isomer, unassigned) [Example 104]	Mcl-1/Bim interaction, recombinant human Mcl-1 (171-327) (Homo sapiens, UniProt Q07820)	7.40
C[C@@H]1C/C=C\[C@H](O)[C@@H]2CC[C@H]2CN2C[C@@]3(CCCc4cc(Cl)ccc43)COc3ccc(cc32)C(=O)NS(=O)(=O)N1C[C@@H]1CCCO1 (single isomer, unassigned) [Example 52]	Mcl-1/Bim interaction, recombinant human Mcl-1 (171-327) (Homo sapiens, UniProt Q07820)	8.41
C[C@@H]1[C@@H](C)S(=O)(=O)NC(=O)c2ccc3c(c2)N(C[C@@H]2CC[C@H]2[C@H](O)/C=C/[C@@H]1C)C[C@@]1(CCCc2cc(Cl)ccc21)CO3 (single isomer, unassigned) [Example 1068]	Mcl-1/Bim interaction, recombinant human Mcl-1 (171-327) (Homo sapiens, UniProt Q07820)	9.35
CO[C@@H]1CCCCCS(=O)(=O)NC(=O)c2ccc3c(c2)N(C[C@@H]2CC[C@H]21)C[C@@]1(CCCc2cc(Cl)ccc21)CO3 [Example 1094]	Mcl-1/Bim interaction, recombinant human Mcl-1 (171-327) (Homo sapiens, UniProt Q07820)	7.75
CN(C)C(=O)CCO[C@@H]1/C=C/CCCS(=O)(=O)NC(=O)c2ccc3c(c2)N(C[C@@H]2CC[C@H]21)C[C@@]1(CCCc2cc(Cl)ccc21)CO3 [Example 211]	Mcl-1/Bim interaction, recombinant human Mcl-1 (171-327) (Homo sapiens, UniProt Q07820)	8.95
C[C@@H]1[C@@H](C)C/C=C/[C@H](OCC(=O)NCC(F)(F)F)[C@@H]2CC[C@H]2CN2C[C@@]3(CCCc4cc(Cl)ccc43)COc3ccc(cc32)C(=O)NS1(=O)=O [Example 297]	Mcl-1/Bim interaction, recombinant human Mcl-1 (171-327) (Homo sapiens, UniProt Q07820)	9.18
